System: TNF-α
Test: Inhibition of TNF-α secretion in LPS stimulated peripheral blood mononuclear cells
Format: cell-based
Details: LPS stimulated human PBMC, 18 hours, ELISA; read-out: The median inhibition concentration (IC50, nM) of TNF-α
observation-type: IC50 (nM)

| compound | units-label | experimental-result |
| --- | --- | --- |
| Cc1ccc(-n2cc(CCO)nn2)cc1C(=O)c1ccc(Nc2ccc(F)cc2Cl)cc1Cl | nM | 0.9 |
| Cc1ccc(-c2cn(CC3COC(C)(C)O3)nn2)cc1C(=O)c1ccc(Nc2ccc(F)cc2F)cc1Cl (centres unmarked) | nM | 1.4 |
| Cc1ccc(-c2cn(CCCS(N)(=O)=O)nn2)cc1C(=O)c1ccc(Nc2ccc(F)cc2F)cc1Cl | nM | 0.7 |

[A] CCOC(=O)Cn1cc(-c2ccc(C)c(C(=O)c3ccc(Nc4ccc(F)cc4F)cc3Cl)c2)nn1
[B] Cc1cc(Cl)ccc1Nc1ccc(C(=O)c2cc(-n3cc(CCO)nn3)ccc2C)c(Cl)c1
Endpoint returns the identifier whose IC50 is numerically larger, either A or B . Your answer should be the label of the entry you select. A
(A: 3.6 nM, B: 2 nM)

Origin of values: patent US8293772B2
